Values compiled from paper PMC7031696.

Test system: 3D7-MR4 trophozoite parasite-infected RBCs
experiment.notes: Metabolomic profiling (hydrophilic metabolite changes, UHPLC-MS)
Assay type: cell-based, Plasmodium falciparum
particulars: metabolite serine
Group membership follows Log2(fold change) serine per the scheme lower range = under -0.04, middle range = from -0.04 up to 0.03, upper range = 0.03 and over

Solved cases (8 shown):
Dear colleague, I would appreciate it if you could identify the bin for CC(C)C[C@@H](/C=C/S(C)(=O)=O)NC(=O)[C@H](CC(C)C)NC(=O)[C@H](Cc1c[nH]c2ccccc12)NC(=O)CN1CCOCC1 [WLL-vs, reference compound] and reply at your convenience.
lower range

Dear colleague, I would appreciate it if you could identify the bin for CCCN(CCC)CC(O)COc1ccccc1C(=O)Nc1ccccc1 (stereo not shown) and reply at your convenience.
middle range

Dear colleague, I would appreciate it if you could identify the bin for Clc1ccc2c(N3CCN(CCCN4CCN(c5ccnc6cc(Cl)ccc56)CC4)CC3)ccnc2c1 [Piperaquine, reference compound] and reply at your convenience.
middle range

Dear colleague, I would appreciate it if you could identify the bin for COCCNCC(O)Cn1c2ccc(Cl)cc2c2cc(Cl)ccc21 (stereo not shown) and reply at your convenience.
middle range

Dear colleague, I would appreciate it if you could identify the bin for COc1cc(-c2nc(-c3ccccc3)c(-c3ccccc3)[nH]2)ccc1OCCN(C)C and reply at your convenience.
upper range

Dear colleague, I would appreciate it if you could identify the bin for COc1cncc(-c2cncc(N3CCN(c4ccncc4)CC3)n2)c1 and reply at your convenience.
upper range

Dear colleague, I would appreciate it if you could identify the bin for Cc1cc(Nc2ccc(OCc3ccccc3)cc2)nc2cc(O)ccc12 and reply at your convenience.
lower range

Dear colleague, I would appreciate it if you could identify the bin for O=C1C(O)=C([C@H]2CC[C@H](c3ccc(Cl)cc3)CC2)C(=O)c2ccccc21 [Atovaquone, reference compound] and reply at your convenience.
upper range

Next:
Dear colleague, I would appreciate it if you could identify the bin for OC(c1cc(C(F)(F)F)nc2c(C(F)(F)F)cccc12)C1CCCCN1 (stereo not shown) [Mefloquine, reference compound] and reply at your convenience.
lower range

Dear colleague, I would appreciate it if you could identify the bin for CN(C(=O)c1cn2c(-c3ccc(C(F)(F)F)cc3)cnc2cn1)c1ccc(C#N)cc1 [KAI407, reference compound] and reply at your convenience.
upper range

Dear colleague, I would appreciate it if you could identify the bin for O=C(Nc1ccc(N2CCNCC2)cc1)c1ccn2ncc(-c3cccc(Cl)c3)c2n1.O=C(O)C(F)(F)F and reply at your convenience.
lower range

Dear colleague, I would appreciate it if you could identify the bin for C[C@H]1Cc2c([nH]c3cc(Cl)c(F)cc23)[C@@]2(N1)C(=O)Nc1ccc(Cl)cc12 [KAE609, reference compound] and reply at your convenience.
middle range

Dear colleague, I would appreciate it if you could identify the bin for O=C(Nc1ccsc1C(=O)NC1CCCCC1)c1ccc(F)cc1 and reply at your convenience.
lower range

----------
Tested on: 3D7-MR4 trophozoite parasite-infected RBCs
experiment.notes: Metabolomic profiling (hydrophilic metabolite changes, UHPLC-MS)
Type: cell-based, Plasmodium falciparum
particulars: metabolite proline
property.measured: Log2(fold change) proline
Reply briefly: the number, and no unit.

Some entries whose results are on file:
Enter reported Log2(fold change) proline observed with 3D7-MR4 trophozoite parasite-infected RBCs for O=C(Nc1ccc(N2CCNCC2)cc1)c1ccn2ncc(-c3cccc(Cl)c3)c2n1.O=C(O)C(F)(F)F
-0.3073

Enter reported Log2(fold change) proline observed with 3D7-MR4 trophozoite parasite-infected RBCs for CCOC(=O)C1=C(C)NC2=C(C(=O)CC(c3ccc(OC)c(OC)c3)C2)C1c1ccccc1Cl (centres unmarked) [GNF-Pf-5660, reference compound]
0.0000

Enter reported Log2(fold change) proline observed with 3D7-MR4 trophozoite parasite-infected RBCs for COCCNCC(O)Cn1c2ccc(Cl)cc2c2cc(Cl)ccc21 (centres unmarked)
0.0000

Enter reported Log2(fold change) proline observed with 3D7-MR4 trophozoite parasite-infected RBCs for FC(F)(F)c1cccc(Nc2nc3ccccc3nc2Nc2cccc(C(F)(F)F)c2)c1
-0.1760

Enter reported Log2(fold change) proline observed with 3D7-MR4 trophozoite parasite-infected RBCs for CCN(CC)CCn1c(=N)n(CC(O)c2ccc(Cl)c(Cl)c2)c2ccccc21.Cl (centres unmarked)
0.0000

Next:
Enter reported Log2(fold change) proline observed with 3D7-MR4 trophozoite parasite-infected RBCs for O=C(Nc1ccsc1C(=O)NC1CCCCC1)c1ccc(F)cc1
-0.2978

Enter reported Log2(fold change) proline observed with 3D7-MR4 trophozoite parasite-infected RBCs for O=C1C(O)=C([C@H]2CC[C@H](c3ccc(Cl)cc3)CC2)C(=O)c2ccccc21 [Atovaquone, reference compound]
-0.1933

Enter reported Log2(fold change) proline observed with 3D7-MR4 trophozoite parasite-infected RBCs for Cc1ccc(Oc2ncccc2C(=O)Nc2cccc3cccnc23)c(C)c1
-0.5702

Enter reported Log2(fold change) proline observed with 3D7-MR4 trophozoite parasite-infected RBCs for CC(C)C[C@@H](/C=C/S(C)(=O)=O)NC(=O)[C@H](CC(C)C)NC(=O)[C@H](Cc1c[nH]c2ccccc12)NC(=O)CN1CCOCC1 [WLL-vs, reference compound]
-0.1122

Enter reported Log2(fold change) proline observed with 3D7-MR4 trophozoite parasite-infected RBCs for COc1ccc(C2c3ccc4ccccc4c3Oc3ncn(CCCN(C)C)c(=N)c32)cc1 (centres unmarked)
-0.2246

----------
System: 3D7-MR4 trophozoite parasite-infected RBCs
experiment.notes: Metabolomic profiling (hydrophilic metabolite changes, UHPLC-MS)
Type: cell-based, Plasmodium falciparum
particulars: metabolite N-acetyl-L-ornithine
Log2(fold change) N-acetyl-L-ornithine: recorded values
Reply briefly: the number, and no unit.

Some entries whose results are on file:
Any idea what its Log2(fold change) N-acetyl-L-ornithine is? The compound is FC(F)(F)c1cccc(Nc2nc3ccccc3nc2Nc2cccc(C(F)(F)F)c2)c1
-0.6613

Any idea what its Log2(fold change) N-acetyl-L-ornithine is? The compound is Cc1cc(Nc2ccc(S(F)(F)(F)(F)F)cc2)n2nc(C(C)(F)F)nc2n1 [DSM265, reference compound]
-0.2000

Any idea what its Log2(fold change) N-acetyl-L-ornithine is? The compound is Cl.c1ccc2c(NCCCCCCNc3c4c(nc5ccccc35)CCCC4)c3c(nc2c1)CCCC3
-2.1230

Any idea what its Log2(fold change) N-acetyl-L-ornithine is? The compound is COCCNCC(O)Cn1c2ccc(Cl)cc2c2cc(Cl)ccc21 (centres unmarked)
-1.7936

Next:
Any idea what its Log2(fold change) N-acetyl-L-ornithine is? The compound is FC(F)(F)c1ccc(Nc2cc3[nH]c(-c4cccc(C(F)(F)F)c4)nc3cn2)nc1
-0.1313

Any idea what its Log2(fold change) N-acetyl-L-ornithine is? The compound is CCOC(=O)C1=C(C)NC2=C(C(=O)CC(c3ccc(OC)c(OC)c3)C2)C1c1ccccc1Cl (centres unmarked) [GNF-Pf-5660, reference compound]
-1.3851

Any idea what its Log2(fold change) N-acetyl-L-ornithine is? The compound is Cc1ccc(Oc2ncccc2C(=O)Nc2cccc3cccnc23)c(C)c1
-1.5863

Any idea what its Log2(fold change) N-acetyl-L-ornithine is? The compound is COc1cncc(-c2cncc(N3CCN(c4ccncc4)CC3)n2)c1
1.0380

----------
Test system: 3D7-MR4 trophozoite parasite-infected RBCs
experiment.notes: Metabolomic profiling (hydrophilic metabolite changes, UHPLC-MS)
Format: cell-based, Plasmodium falciparum
particulars: metabolite IMP
property.measured: Log2(fold change) IMP
Reply briefly: the number, and no unit.

Any idea what its Log2(fold change) IMP is? The compound is CCCOCc1cc(CN2CCN(c3cccc(Cl)c3)CC2)c(O)c2ncccc12
-0.1140

Any idea what its Log2(fold change) IMP is? The compound is CC(C)(C)NCc1cc(Nc2ccnc3cc(Cl)ccc23)c2c(c1O)CCCC2 [Naphtoquine, Naphthoquine, reference compound]
-0.0394

Any idea what its Log2(fold change) IMP is? The compound is Cc1cc(Nc2ccc(OCc3ccccc3)cc2)nc2cc(O)ccc12
-0.1201

----------
Test system: 3D7-MR4 trophozoite parasite-infected RBCs
experiment.notes: Metabolomic profiling (hydrophilic metabolite changes, UHPLC-MS)
Assay type: cell-based, Plasmodium falciparum
particulars: metabolite N-acetyl-glutamine
Cut-off -0.1 on Log2(fold change) N-acetyl-glutamine: below means Y, at or above means N.

Item OC(c1cc(C(F)(F)F)nc2c(C(F)(F)F)cccc12)C1CCCCN1 (stereo not shown) [Mefloquine, reference compound] : Log2(fold change) N-acetyl-glutamine beneath -0.1, strictly?
N

Item C[C@H]1Cc2c([nH]c3cc(Cl)c(F)cc23)[C@@]2(N1)C(=O)Nc1ccc(Cl)cc12 [KAE609, reference compound] : Log2(fold change) N-acetyl-glutamine beneath -0.1, strictly?
Y

Item COCCNCC(O)Cn1c2ccc(Cl)cc2c2cc(Cl)ccc21 (stereo not shown) : Log2(fold change) N-acetyl-glutamine beneath -0.1, strictly?
N

Item CCOC(=O)C1=C(C)NC2=C(C(=O)CC(c3ccc(OC)c(OC)c3)C2)C1c1ccccc1Cl (stereo not shown) [GNF-Pf-5660, reference compound] : Log2(fold change) N-acetyl-glutamine beneath -0.1, strictly?
Y

Item FC(F)(F)c1cccc(Nc2nc3ccccc3nc2Nc2cccc(C(F)(F)F)c2)c1 : Log2(fold change) N-acetyl-glutamine beneath -0.1, strictly?
Y

Item O=C(Nc1ccc(N2CCNCC2)cc1)c1ccn2ncc(-c3cccc(Cl)c3)c2n1.O=C(O)C(F)(F)F : Log2(fold change) N-acetyl-glutamine beneath -0.1, strictly?
N

Item Cc1cc(Nc2ccc(OCc3ccccc3)cc2)nc2cc(O)ccc12 : Log2(fold change) N-acetyl-glutamine beneath -0.1, strictly?
N

Item CN(C(=O)c1cn2c(-c3ccc(C(F)(F)F)cc3)cnc2cn1)c1ccc(C#N)cc1 [KAI407, reference compound] : Log2(fold change) N-acetyl-glutamine beneath -0.1, strictly?
Y

Next:
Item CC(C)(C)NCc1cc(Nc2ccnc3cc(Cl)ccc23)c2c(c1O)CCCC2 [Naphtoquine, Naphthoquine, reference compound] : Log2(fold change) N-acetyl-glutamine beneath -0.1, strictly?
N

Item COc1ccc(C2c3ccc4ccccc4c3Oc3ncn(CCCN(C)C)c(=N)c32)cc1 (stereo not shown) : Log2(fold change) N-acetyl-glutamine beneath -0.1, strictly?
N
